The measurements presented in this section are drawn from patent US6180803A.

test system: ventral prostate and seminal vesicle of immature castrated male rats; assay: Residual androgenic activity in the immature castrated male rat model; format: in vivo; details: in words; gavage (PO), Tables 3 and 4
endpoint-name: effect on the growth of male accessory sex organs (residual androgenic activity)

{"smiles": "CC(=O)O[C@]1(C(C)=O)CC[C@H]2[C@@H]3CC(C)(C)C4=CC(=O)CC[C@@H]4[C@H]3CC[C@@]21C", "observed-measurement": "totally inactive"}
{"smiles": "CC(=O)O[C@]1(C(C)=O)CC[C@H]2[C@@H]3C[C@H](C)C4=CC(=O)[C@@H]5C[C@@H]5[C@@H]4[C@H]3CC[C@@]21C", "observed-measurement": "totally inactive"}

* * *

system: uterus of estrogen-primed immature female rabbits (endometrial transformation); experiment: Clauberg-McPhail test by oral administration (gavage), endometrial transformation of the rabbit uterus; type: in vivo; details: relative to nomegestrol acetate = 100%
Relative activity overview
endpoint-name: Relative activity (%)

{"compound": "CC(=O)O[C@]1(C(C)=O)CC[C@H]2[C@@H]3C[C@H](C)C4=CC(=O)[C@H]5C[C@H]5[C@@H]4[C@H]3CC[C@@]21C", "study-system": "uterus of estrogen-primed immature female rabbits (endometrial transformation)", "unit-descriptor": "%", "result-modifier": ">", "observed-measurement": 17}
{"compound": "CC(=O)O[C@]1(C(C)=O)CC[C@H]2[C@@H]3C[C@H](C)C4=CC(=O)[C@@H]5C[C@@H]5[C@@H]4[C@H]3CC[C@@]21C", "study-system": "uterus of estrogen-primed immature female rabbits (endometrial transformation)", "unit-descriptor": "%", "result-modifier": "=", "observed-measurement": 258}
{"compound": "CC(=O)O[C@]1(C(C)=O)CC[C@H]2[C@@H]3C=C(C)C4=CC(=O)CC[C@@H]4[C@H]3CC[C@@]21C [Nomegestrol acetate, reference compound]", "study-system": "uterus of estrogen-primed immature female rabbits (endometrial transformation)", "unit-descriptor": "%", "result-modifier": "=", "observed-measurement": 100}
{"compound": "CC(=O)O[C@]1(C(C)=O)CC[C@H]2[C@@H]3CC(C)(C)C4=CC(=O)CC[C@@H]4[C@H]3CC[C@@]21C", "study-system": "uterus of estrogen-primed immature female rabbits (endometrial transformation)", "unit-descriptor": "%", "result-modifier": "=", "observed-measurement": 112}

* * *

RBA (relative binding affinity) reference
system: human T47-D cell progesterone receptor; assay: Relative binding affinity to human T47-D cell progesterone receptor ([3H]-ORG 2058 displacement); details: relative to nomegestrol acetate = 100%

{"molecule": "CC(=O)O[C@]1(C(C)=O)CC[C@H]2[C@@H]3C[C@H](C)C4=CC(=O)[C@@H]5C[C@@H]5[C@@H]4[C@H]3CC[C@@]21C", "RBA (relative binding affinity)": "39%"}
{"molecule": "CC(=O)O[C@]1(C(C)=O)CC[C@H]2[C@@H]3CC(C)(C)C4=CC(=O)CC[C@@H]4[C@H]3CC[C@@]21C", "RBA (relative binding affinity)": "32%"}
{"molecule": "CC(=O)O[C@]1(C(C)=O)CC[C@H]2[C@@H]3C=C(C)C4=CC(=O)CC[C@@H]4[C@H]3CC[C@@]21C [Nomegestrol acetate, reference compound]", "RBA (relative binding affinity)": "100%"}
{"molecule": "CC(=O)O[C@]1(C(C)=O)CC[C@H]2[C@@H]3C[C@H](C)C4=CC(=O)[C@H]5C[C@H]5[C@@H]4[C@H]3CC[C@@]21C", "RBA (relative binding affinity)": "50%"}
